Target: IDH R132C (Homo sapiens, UniProt O75874, R132C)
Construct: expressed in transfected cells; host or cells: U87 cells
Sequence (O75874 whole entry R132C): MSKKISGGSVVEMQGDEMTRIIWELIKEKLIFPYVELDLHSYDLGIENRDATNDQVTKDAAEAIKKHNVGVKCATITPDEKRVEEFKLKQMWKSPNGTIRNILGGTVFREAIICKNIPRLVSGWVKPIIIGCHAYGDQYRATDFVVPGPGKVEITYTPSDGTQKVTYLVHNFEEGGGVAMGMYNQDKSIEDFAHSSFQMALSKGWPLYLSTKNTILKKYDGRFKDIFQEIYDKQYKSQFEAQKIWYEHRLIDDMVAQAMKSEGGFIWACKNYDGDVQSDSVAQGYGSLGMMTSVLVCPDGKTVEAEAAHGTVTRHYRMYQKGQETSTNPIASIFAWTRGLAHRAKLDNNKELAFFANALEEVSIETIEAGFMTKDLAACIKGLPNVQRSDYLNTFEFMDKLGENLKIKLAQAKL
Assay: Detection of 2-HG in supernatant of U87-IDH R132C cells
Type: cell-based
Conditions: 10 nM compound, 72 h, LC-MS-MS, vs control; read-out: Inhibition rate of compounds on 2-HG in the supernatant of U87-IDH R132C cells, 10 nM
Measured quantity: inhibition at 0.01 µM

C=CC(=O)N1CC2(C1)CN(C(CC(C)(C)C)c1ccc([C@H](C)Nc3ncc4c(n3)N(CC)C(=O)OC4)cc1)C2 (stereo partly shown): 60 to 90%
C=CC(=O)N1CCN([C@H](CC2CC2)c2ccc([C@H](C)Nc3ncc4cnc(=O)n(C(C)C)c4n3)cc2)CC1: 60 to 90%
C=CC(=O)N1CC2(C1)CN([C@H](CC13CC(C1)C3)c1ccc([C@H](C)Nc3ncc4c(n3)N(CC)C(=O)OC4)cc1)C2: 60 to 90%
C=CC(=O)N1CC2(C1)CN(C(CC1CCC1)c1ccc([C@H](C)Nc3ncc4c(n3)N(CC)C(=O)OC4)cc1)C2 (stereo partly shown): > 90%
C=CC(=O)N1CCN([C@H](CC2CC2)c2ccc([C@H](C)Nc3ncc4cnc(=O)n(CC)c4n3)cc2)CC1: > 90%

Incoming: Data request, read-out inhibition at 0.01 µM, for C=CC(=O)N(C)C1CN(C(CC2CC2)c2ccc([C@H](C)Nc3ncc4c(n3)N(CC)C(=O)OC4)cc2)C1 (stereo partly shown)
Outgoing: > 90%

Incoming: Data request, read-out inhibition at 0.01 µM, for C=CC(=O)N1CCN(C(CC2CCC2)c2ccc(C3(Nc4ncc5c(n4)N(CC)C(=O)OC5)CC3)cc2)CC1 (stereo not shown)
Outgoing: 60 to 90%

----------
Measured inhibition at 0.01 µM of individual entries
Molecular target: IDH R132C (Homo sapiens, UniProt O75874, R132C)
Construct: expressed in transfected cells; host or cells: U87 cells
Test: Detection of 2-HG in supernatant of U87-IDH R132C cells
Format: cell-based
Settings: 10 nM compound, 72 h, LC-MS-MS, vs control; read-out: Inhibition rate of compounds on 2-HG in the supernatant of U87-IDH R132C cells, 10 nM

C=CC(=O)N1CCN(C(CC23CC(C2)C3)c2ccc([C@H](C)Nc3ncc4c(n3)N(CC)C(=O)OC4)cc2)CC1 (some centres unmarked) [Compound 157]: > 90%
C=CC(=O)N1CC2(C1)CN([C@H](CC13CC(C1)C3)c1ccc([C@H](C)Nc3ncc4c(n3)N(CC)C(=O)NC4)cc1)C2 [Compound 72-2]: 60 to 90%
C=CC(=O)N1CC2(C1)CN(C(CC(C)C)c1ccc([C@H](C)Nc3ncc4c(n3)N(C(C)C)C(=O)OC4)cc1)C2 (some centres unmarked) [Compound 47]: > 90%
C=CC(=O)N1CCN(C(CC)c2ccc([C@H](C)Nc3ncc4c(n3)N(C(C)C)C(=O)NC4)cc2)CC1 (some centres unmarked) [Compound 80]: 60 to 90%
C=CC(=O)N1CCN(C(CC2CC2)c2ccc([C@H](C)Nc3ncc4cnc(=O)n(CC)c4n3)cc2)CC1 (some centres unmarked) [Compound 114]: > 90%
C=CC(=O)N1CCN(C(CCC)c2ccc([C@H](C)Nc3ncc4c(n3)N(CC)C(=O)OC4)cc2)CC1 (some centres unmarked) [Compound 141]: 60 to 90%
C=CC(=O)N1CCN(C(CC(C)C)c2ccc([C@H](C)Nc3ncc4cnc(=O)n(CC)c4n3)cc2)CC1 (some centres unmarked) [Compound 116]: > 90%
C=CC(=O)N1CCN(C(CC(C)C)c2ccc([C@H](C)Nc3ncc4c(n3)N(C(C)C)C(=O)NC4)cc2)CC1 (some centres unmarked) [Compound 81]: 60 to 90%
C=CC(=O)N1CC2(C1)CN(C(CC(C)C)c1ccc([C@H](C)Nc3ncc4c(n3)N(CC)C(=O)OC4)cc1)C2 (some centres unmarked) [Compound 41]: > 90%
C=CC(=O)N1CCN([C@@H](CC)c2ccc([C@H](C)Nc3ncc4cnc(=O)n(CC)c4n3)cc2)CC1 [Compound 116-1]: > 90%

Incoming: Give recorded inhibition at 0.01 µM with IDH R132C (Homo sapiens, UniProt O75874, R132C) for the following compound: C=CC(=O)N1CCN(C(CC2(C)CC2)c2ccc([C@H](C)Nc3ncc4c(n3)N(CC)C(=O)NC4)cc2)CC1 (some centres unmarked) [Compound 69]
Outgoing: > 90%

Incoming: Give recorded inhibition at 0.01 µM with IDH R132C (Homo sapiens, UniProt O75874, R132C) for the following compound: C=CC(=O)N1CC2(C1)CN(C(CC1CC1)c1ccc(C3(Nc4ncc5c(n4)N(CC)C(=O)OC5)CC3)cc1)C2 (centres unmarked) [Compound 26]
Outgoing: 60 to 90%

Incoming: Give recorded inhibition at 0.01 µM with IDH R132C (Homo sapiens, UniProt O75874, R132C) for the following compound: C=CC(=O)N1CCN([C@H](CC2CC2)c2ccc([C@H](C)Nc3ncc4c(n3)N(C(C)C)C(=O)OC4)cc2)CC1 [Compound 147-2]
Outgoing: 60 to 90%

Incoming: Give recorded inhibition at 0.01 µM with IDH R132C (Homo sapiens, UniProt O75874, R132C) for the following compound: C=CC(=O)N1CC2(C1)CN(C(CC1CC1)c1ccc([C@H](C)Nc3ncc4c(n3)N(CC)C(=O)OC4)cc1)C2 (some centres unmarked) [Compound 1]
Outgoing: > 90%
